Test system: A549 NSCLC
assay-summary: NCI tumour cell line growth inhibition, 48 h
Overview of recorded TGI for various compounds

>  <compound>
CCc1cc(Cc2cc(CC)c(NC(=O)C(=O)Cc3ccccn3)c(CC)c2Cl)c(Cl)c(CC)c1NC(=O)C(=O)Cc1ccccn1

>  <TGI>
> 100 µM

$$$$
>  <compound>
OC(c1nc2ccccc2[nH]1)C(O)C(O)C(O)c1nc2ccccc2[nH]1 (stereo not drawn)

>  <TGI>
> 100 µM

$$$$
>  <compound>
COc1cc2c3c(n(C)c(=O)c2cc1OC)-c1cc2c(cc1/C3=C\CCN)OCO2

>  <TGI>
4.44 µM

$$$$
>  <compound>
N#CC(C#N)=CNC(N)=S

>  <TGI>
> 100 µM

$$$$
>  <compound>
CN(C)c1ccc(/C=C(\NC(=O)c2ccccc2)c2nc3ncncc3[nH]2)cc1

>  <TGI>
> 100 µM

$$$$
>  <compound>
CCCSCC(P(=O)(O)O)P(=O)(O)O

>  <TGI>
> 100 µM

$$$$
>  <compound>
CCN(CCCN(CC)C(=O)Nc1c(C)cccc1C)C(=O)Nc1c(C)cccc1C

>  <TGI>
> 100 µM

$$$$
>  <compound>
CCOP(=O)(OCC)C(c1ccc(F)cc1)N(C(=O)NC(F)(F)F)c1ccc(OC)cc1 (stereo not drawn)

>  <TGI>
> 100 µM

$$$$
>  <compound>
COc1cccc(-c2nc(-c3ccc(NC(=O)C(C)C)cc3)[nH]c2-c2ccnc(Br)c2)c1

>  <TGI>
> 100 µM

$$$$
>  <compound>
CC(=O)[C@@]12O[C@@H]1CC1C3CCC4=CC(O)CCC4(C)C3CCC12C (stereo partly drawn)

>  <TGI>
> 100 µM

$$$$
>  <compound>
CC1=CC(O)(c2ccc(-c3ccccc3Cl)cc2)OC1=O (stereo not drawn)

>  <TGI>
> 100 µM

$$$$
>  <compound>
CC(C)(C)OC(=O)N[C@H]1CC2(C=C(Cl)C(=O)C(Cl)=C2)OC1=O

>  <TGI>
> 100 µM

$$$$
>  <compound>
Cn1c2ccccc2c2cc(-c3ccccc3)c3c(c21)C(=O)c1ccccc1C3=O

>  <TGI>
79.1 µM

$$$$
>  <compound>
COc1ccc2c(c1)/C(=C\c1c(Cl)nc3sc(C)cn13)C(=O)N2

>  <TGI>
17 µM

$$$$
>  <compound>
C=C1C(=O)O[C@H]2[C@H]1CC/C(COC(=O)c1c[nH]c3ccccc13)=C\CC[C@@]1(C)O[C@@H]21

>  <TGI>
3.3 µM

$$$$
>  <compound>
COc1ncnc(NS(=O)(=O)c2ccc(N=C3C(=O)N(CN4CCN(c5c(F)cc6c(=O)c(C(=O)O)cn(C7CC7)c6c5OC)CC4C)c4ccc(Cl)cc43)cc2)c1OC (stereo not drawn)

>  <TGI>
> 50 µM

$$$$
>  <compound>
CCCCCCOc1ccc(C(=O)NOC)cc1

>  <TGI>
> 100 µM

$$$$
>  <compound>
O=C(Nc1nccs1)c1c(O)nc2sccn2c1=O

>  <TGI>
> 10 µM

$$$$
>  <compound>
COc1ccc(NC(=O)CC(=O)N2N=C(N3c4ccccc4Sc4ccccc43)CC2c2ccccc2)cc1 (stereo not drawn)

>  <TGI>
> 100 µM

$$$$
>  <compound>
O=C1c2ccccc2-c2c1c(-c1ccc(F)cc1)nc1ccc3ccccc3c21

>  <TGI>
> 100 µM

$$$$
>  <compound>
NC1(C(=O)OCc2ccccc2)CCCC1

>  <TGI>
> 100 µM

$$$$
>  <compound>
COc1ccc(S(=O)(=O)NNS(C)(=O)=O)cc1

>  <TGI>
> 100 µM

$$$$
>  <compound>
OCCc1ccsc1-c1sc(-c2cc(CCO)c(-c3sccc3CCO)s2)cc1CCO

>  <TGI>
> 100 µM

$$$$
>  <compound>
OCC#Cc1ccccc1C#Cc1ccccc1

>  <TGI>
45 µM

$$$$
>  <compound>
Cc1cn(C2CC(O)C(CO)O2)c(=O)[nH]c1=O (stereo not drawn)

>  <TGI>
4450 µM

$$$$
>  <compound>
C=C(Br)C(C)(Br)CCC(Br)C(C)(C)Cl (stereo not drawn)

>  <TGI>
> 100 µM

$$$$
>  <compound>
CCOC(=O)CC(=O)ON(C)C(C)=O

>  <TGI>
> 100 µM

$$$$
>  <compound>
CN1CCN(CCCn2c(=O)c3sc4ncccc4c3n3nnc(-c4ccccc4)c23)CC1

>  <TGI>
13.8 µM

$$$$
>  <compound>
CC1CCC(C(=O)O)(C(Br)C(=O)O)CC1 (stereo not drawn)

>  <TGI>
> 100 µM

$$$$
>  <compound>
CC1=C[C@@H]2Cc3nc4cc(Cl)ccc4c(N)c3[C@H](C1)C2

>  <TGI>
34.9 µM

$$$$
>  <compound>
COc1ccc(/C=C(/C#N)n2nnc3cccc(F)c32)cc1

>  <TGI>
> 100 µM

$$$$
>  <compound>
COc1cc(NCc2ccc3oc(=O)c(-c4ccccc4)nc3c2)cc(OC)c1OC

>  <TGI>
> 10 µM

$$$$
>  <compound>
CCNC(=O)Cc1nc2c(N)ncnc2n1C1OC(CO)C(O)C1O (stereo not drawn)

>  <TGI>
> 100 µM

$$$$
>  <compound>
CCN(CC)CCn1c(=O)c2cccnc2n2c3c(=O)n(C)c(=O)n(C)c3nc12

>  <TGI>
> 100 µM

$$$$
>  <compound>
NS(=O)(=O)c1cc(Br)c(N=Nc2ccc(O)c3ncccc23)c(Br)c1

>  <TGI>
60.7 µM

$$$$
>  <compound>
O=C(CSc1ccc(Cl)cc1)Nc1ccc(-c2nc3ccccc3s2)c(Cl)c1

>  <TGI>
> 100 µM

$$$$
>  <compound>
O=S(=O)(CCn1c(Sc2ccccc2)c(Sc2ccccc2)c2ccccc21)c1ccccc1

>  <TGI>
> 100 µM

$$$$
>  <compound>
COc1ccc(-c2nnc(COc3ccc(NC(=O)Nc4cc(C(F)(F)F)cc(C(F)(F)F)c4)cc3F)o2)cc1

>  <TGI>
7.15 µM

$$$$
>  <compound>
CN(C)c1ccc(C(=N/N=C2\C(=O)Nc3ccccc32)c2ccc(N(C)C)cc2)cc1

>  <TGI>
43.2 µM

$$$$
>  <compound>
COc1ccc(-c2nnc(COc3ccc(C(=O)/C=C/c4ccco4)cc3)o2)cc1

>  <TGI>
13.8 µM

$$$$
>  <compound>
O=C(O)c1ccccc1CC1Cc2ccccc2C1=O (stereo not drawn)

>  <TGI>
> 100 µM

$$$$
>  <compound>
COC(OC)C(C)CC(=O)N(C)C (stereo not drawn)

>  <TGI>
> 100 µM

$$$$
>  <compound>
NC1=NCC(CN2CCOCC2)O1 (stereo not drawn)

>  <TGI>
> 100 µM

$$$$
